Data provenance: patent US7396844B1

- TARGET DESC: human thrombin (Homo sapiens, UniProt P00734)
- Construct: human thrombin (a product of SIGMA Co.); purchased SIGMA Co
- TEST METHOD NOTES: Determination of thrombin-inhibiting activity
- Format: biochemical
- EXPERIMENTAL SETUP: Table 3; same manner as Example 94; read-out: Thrombin inhibiting activity (pIC50) (converted)
Hi there, I'd appreciate the recorded IC50 for every entry that follows.
One number for each entry, in µM.

For orientation, consider the following solved cases.
N=C(N)c1ccc(C(=O)N[C@@H](COc2cc(C(=N)N)ccc2CC(=O)C(=O)O)CC(=O)O)cc1.O=C(O)C(F)(F)F.O=C(O)C(F)(F)F [Compound of Ex. 186, bistrifluoroacetate]
251
N=C(N)c1ccc(CC(=O)C(=O)O)c(OC[C@@H](CC(=O)O)NC(=O)c2ccc(C(=O)N3CCCC3)cc2)c1.O=C(O)C(F)(F)F [Compound of Ex. 191, trifluoroacetate]
200

For every item below, please supply its IC50.
1. N=C(N)c1ccc(CC(=O)C(=O)O)c(OC[C@@H](CC(=O)O)NC(=O)c2ccc(S(=O)(=O)N3CCCC3)cc2)c1.O=C(O)C(F)(F)F [Compound of Ex. 195, trifluoroacetate]
2. CN(C)C(=O)c1ccc(C(=O)N[C@@H](COc2cc(C(=N)N)ccc2CC(=O)C(=O)O)CC(=O)O)cc1.O=C(O)C(F)(F)F [Compound of Ex. 188, trifluoroacetate]

Result:
1. 31.6
2. 398

* * *

- TARGET DESC: activated human blood coagulation factor X (Homo sapiens, UniProt P00742)
- Construct: purchased Enzyme Research Co
- Sequence (P00742 235-488 limits assumed): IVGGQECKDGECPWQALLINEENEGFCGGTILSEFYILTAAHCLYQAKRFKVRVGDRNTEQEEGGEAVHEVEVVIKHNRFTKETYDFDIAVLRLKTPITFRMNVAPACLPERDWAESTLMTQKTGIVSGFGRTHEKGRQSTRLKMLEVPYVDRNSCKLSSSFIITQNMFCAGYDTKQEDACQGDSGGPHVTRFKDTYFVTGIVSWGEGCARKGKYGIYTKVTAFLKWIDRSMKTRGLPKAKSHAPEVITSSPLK
- Sequence (P00742 41-179 partner limits assumed): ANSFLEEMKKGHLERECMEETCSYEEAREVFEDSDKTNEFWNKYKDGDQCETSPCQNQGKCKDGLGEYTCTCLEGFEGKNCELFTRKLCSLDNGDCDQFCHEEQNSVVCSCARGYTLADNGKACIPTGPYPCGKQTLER
- TEST METHOD NOTES: Determination of activity of inhibiting the activated blood coagulation factor X
- Assay type: biochemical
- EXPERIMENTAL SETUP: Table 2; same manner as Example 93; read-out: Activity of inhibiting activated blood coagulation factor X (pIC50) (converted)
MEASUREMENT TYPE: IC50 (µM)
Answers are plain numbers, in µM.

CC(=N)N1CCC(Oc2ccc(C[C@H](NS(=O)(=O)c3ccccc3)C(=O)Nc3cccc(C(=N)N)c3)cc2)CC1.O=C(O)C(F)(F)F.O=C(O)C(F)(F)F [Compound of Ex. 178, bistrifluoroacetate]
0.501
N=C(N)c1ccc(C(=O)N[C@H](CCC(=O)O)COc2cccc(C(=N)N)c2)cc1 [Compound of Ex. 121, bistrifluoroacetate]
0.0501
CC(=N)N1CCC(Oc2ccc(C[C@@H](COc3cccc(C(=N)N)c3)NS(=O)(=O)c3ccccc3)cc2)CC1.O=C(O)C(F)(F)F.O=C(O)C(F)(F)F [Compound of Ex. 158, bistrifluoroacetate]
0.158
N=C(N)c1ccc(C(=O)NCCSc2cccc(C(=N)N)c2)cc1.O=C(O)C(F)(F)F.O=C(O)C(F)(F)F [Compound of Ex. 143, bistrifluoroacetate]
0.501

Next up:
Task: Provide measured IC50 on activated human blood coagulation factor X (Homo sapiens, UniProt P00742) for CC(=N)N1CCC(Cc2ccc(C[C@@H](COc3cccc(C(=N)N)c3)NS(=O)(=O)c3ccccc3)cc2)CC1.O=C(O)C(F)(F)F.O=C(O)C(F)(F)F [Compound of Ex. 165, bistrifluoroacetate] please.
Result: 0.2

* * *

- TARGET DESC: human thrombin (Homo sapiens, UniProt P00734)
- Construct: human thrombin (a product of SIGMA Co.); purchased SIGMA Co
- TEST METHOD NOTES: Determination of thrombin-inhibiting activity
- Assay type: biochemical
- EXPERIMENTAL SETUP: Table 1; negative logarithm of concentration inhibiting 50% of initial rate; substrate S-2238, Tris-HCl pH 8.4; read-out: Thrombin-inhibiting activity (pIC50) (converted)
Where a name gives a salt, the structure may show the parent alone.
Hi there, I'd appreciate the recorded IC50 for every entry that follows.
Give bare numbers, in µM.

For orientation, consider the following solved cases.
CCOC(=O)C[C@H](COc1cccc(C(=N)N)c1)NC(=O)c1ccc(N2CCCC2)cc1 [Compound of Ex. 59, trifluoroacetate]
15.8
N=C(N)c1cccc(OCCNC(=O)c2ccc(CCc3ccncc3)cc2)c1 [Compound of Ex. 14, bistrifluoroacetate]
20
CCOC(=O)C[C@H](COc1cccc(C(=N)N)c1)NC(=O)c1ccc(-c2ccccc2)cc1 [Compound of Ex. 54, trifluoroacetate]
25.1

Next up:
Task: Please supply the value of reported IC50 for the item N=C(N)c1ccc(CC(=O)C(=O)O)c(OCCNC(=O)c2ccc(CC3CCNCC3)cc2)c1 [Compound of Ex. 81, bistrifluoroacetate]
Result: 31.6

* * *

- TARGET DESC: human thrombin (Homo sapiens, UniProt P00734)
- Construct: human thrombin (a product of SIGMA Co.); purchased SIGMA Co
- TEST METHOD NOTES: Determination of thrombin-inhibiting activity
- Assay type: biochemical
- EXPERIMENTAL SETUP: Table 1; negative logarithm of concentration inhibiting 50% of initial rate; substrate S-2238, Tris-HCl pH 8.4; read-out: Thrombin-inhibiting activity (pIC50) (converted)
MEASUREMENT TYPE: IC50

For orientation, consider the following solved cases.
N=C(N)Nc1ccc(C(=O)N[C@@H](COc2cccc(C(=N)N)c2)CC(=O)O)cc1 [Compound of Ex. 57, bistrifluoroacetate]
> 1000 µM
N=C(N)c1ccc(C(=S)NCCOc2cccc(C(=N)N)c2)cc1 [Compound of Ex. 1, bistrifluoroacetate]
398 µM

Next up:
Task: Please supply the value of reported IC50 for the item N=C(N)c1ccc(C(=O)N[C@H](CCOc2cccc(C(=N)N)c2)C(=O)O)cc1 [Compound of Ex. 92, bistrifluoroacetate]
Result: > 1000 µM
